Provenance of the data: paper PMC8165160

# study-target: ASBT (Homo sapiens)
# Construct: The full-length open reading frames of NTCP, ASBT, and SOAT were cloned; expressed in transfected cells; host or cells: Flp-In T-REX HEK293 (ASBT-HEK293), tetracycline-induced
# Sequence (Q12908 whole entry): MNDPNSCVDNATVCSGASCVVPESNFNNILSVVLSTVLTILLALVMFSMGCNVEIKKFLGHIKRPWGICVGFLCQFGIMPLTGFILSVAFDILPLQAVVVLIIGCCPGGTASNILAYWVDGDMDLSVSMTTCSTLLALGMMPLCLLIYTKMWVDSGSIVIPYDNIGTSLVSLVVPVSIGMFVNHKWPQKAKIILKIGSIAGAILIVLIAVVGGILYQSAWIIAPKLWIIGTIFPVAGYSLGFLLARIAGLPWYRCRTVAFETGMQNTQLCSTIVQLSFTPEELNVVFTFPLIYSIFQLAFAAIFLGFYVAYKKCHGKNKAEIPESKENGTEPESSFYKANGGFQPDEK
# method-summary: Transport inhibition in ASBT-HEK293 cells
# Format: cell-based
# experimental-setup: ASBT IC50, substrate [3H]TC, substrate inhibitors; 200 nM [3H]TC, 1 min after 5 min preincubation
Counter-ions that a name gives are not always drawn.
measurement-name: IC50 (µM)

[
  {
    "compound": "C[C@]12CC[C@H](OS(=O)(=O)O)CC1=CC[C@@H]1[C@@H]2CC[C@]2(C)C(=O)CC[C@@H]12 [DHEAS, Dehydroepiandrosterone sulfate]",
    "measurement-name": "IC50",
    "unit": "µM",
    "value": 453
  }
]

====

# study-target: UniProtKB Q14973
# Sequence (Q14973 1-349): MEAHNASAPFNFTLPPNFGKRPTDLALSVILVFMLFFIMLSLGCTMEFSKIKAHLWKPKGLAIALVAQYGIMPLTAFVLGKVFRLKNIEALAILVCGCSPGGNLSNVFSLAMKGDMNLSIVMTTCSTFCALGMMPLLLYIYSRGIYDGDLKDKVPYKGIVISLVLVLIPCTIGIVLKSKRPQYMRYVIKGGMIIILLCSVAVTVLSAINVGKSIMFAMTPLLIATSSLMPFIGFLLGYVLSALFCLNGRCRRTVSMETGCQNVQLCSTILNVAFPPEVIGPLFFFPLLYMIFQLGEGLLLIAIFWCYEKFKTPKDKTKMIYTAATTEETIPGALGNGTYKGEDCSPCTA
# method-summary: Binding of fluorescent myr-preS1-Al633 peptide to NTCP-HEK293 cells
# Parameters: The full-length open reading frames of NTCP, ASBT, and SOAT were cloned; expressed in transfected cells; host or cells: Flp-In T-REX HEK293 (NTCP-HEK293), tetracycline-induced
# experimental-setup: 10 nM myr-preS1-Al633, 10 min, 37°C, NTCP-HEK293; read-out: IC50 for inhibition of myr-preS1 peptide binding to NTCP
pIC50: −log10 of the molar value.
measurement-name: pIC50

[
  {
    "mol": "C[C@H](CCC(=O)NCCS(=O)(=O)O)[C@H]1CC[C@H]2[C@@H]3CC[C@@H]4C[C@H](O)CC[C@]4(C)[C@H]3CC[C@]12C",
    "measurement-name": "pIC50",
    "value": 5.37
  }
]
